Source: patent US20250066360A1

Some compounds, each annotated with its measured Selectivity ratio (p38 IC50 / p38/MK2 IC50).
- System Tested: p38α/MK2 (Homo sapiens, UniProt P49137+Q16539)
- Construct: purchased R & D systems (p38 alpha); Thermo (MK2) 5477-KS-010; PV3316
- Sequence (Q16539 whole entry): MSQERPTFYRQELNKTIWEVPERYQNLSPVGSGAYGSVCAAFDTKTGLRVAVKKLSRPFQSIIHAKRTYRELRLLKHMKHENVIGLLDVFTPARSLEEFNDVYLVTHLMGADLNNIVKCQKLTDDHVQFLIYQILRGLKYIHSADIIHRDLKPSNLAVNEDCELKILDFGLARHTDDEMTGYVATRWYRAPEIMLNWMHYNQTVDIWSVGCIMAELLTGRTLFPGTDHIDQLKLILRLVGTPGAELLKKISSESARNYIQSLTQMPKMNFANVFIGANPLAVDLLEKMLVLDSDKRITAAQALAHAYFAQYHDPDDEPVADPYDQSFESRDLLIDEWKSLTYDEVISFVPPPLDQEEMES
- Sequence (P49137 whole entry): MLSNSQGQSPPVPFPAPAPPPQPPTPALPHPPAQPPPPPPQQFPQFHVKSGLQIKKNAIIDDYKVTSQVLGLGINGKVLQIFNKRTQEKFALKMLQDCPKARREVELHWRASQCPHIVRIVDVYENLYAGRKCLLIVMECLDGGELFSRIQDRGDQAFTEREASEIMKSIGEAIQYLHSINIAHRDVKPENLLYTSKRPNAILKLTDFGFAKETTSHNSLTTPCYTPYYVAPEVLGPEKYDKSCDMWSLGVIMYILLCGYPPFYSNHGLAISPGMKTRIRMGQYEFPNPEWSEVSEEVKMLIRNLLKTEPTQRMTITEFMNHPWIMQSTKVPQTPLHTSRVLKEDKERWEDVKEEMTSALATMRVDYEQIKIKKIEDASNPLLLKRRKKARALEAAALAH
- Assay Text: Inhibition of p38α/MK2 enzyme activity (TR-FRET, ULight-CREBtide)
- Format: biochemical
- Applied Conditions: selectivity ratio p38 IC50 over p38/MK2 IC50
Property: Selectivity ratio (p38 IC50 / p38/MK2 IC50)

[2H]C([2H])(Oc1cc(C)n(-c2cc(-n3cccc(C(C)(C)O)c3=O)ncc2C)c(=O)c1Cl)c1ncc(F)cc1F [Example 11-1] | 346
[2H]C([2H])(Oc1cc(C)n(-c2cc(-n3cccc(C(C)(C)NC(C)=O)c3=O)ncc2C)c(=O)c1Cl)c1ncc(F)cc1F [Example 5-1] | 666
[2H]C([2H])(Oc1cc2n(c(=O)c1Cl)-c1c(cnc(-c3ccnc(C(C)(C)NC(C)=O)n3)c1F)CCCC2)c1ncc(F)cc1F [Example 7-1] | 144
[2H]C([2H])(Oc1cc(C)n(-c2cc(-n3cccc(C(C)(C)O)c3=O)ncc2C)c(=O)c1Cl)c1ccc(F)cc1F [Example 14-1] | 102
[2H]C([2H])(Oc1cc2n(c(=O)c1Cl)-c1cc(-n3cccc(C(C)(C)O)c3=O)ncc1CCCC2)c1ncc(F)cc1F [Example 15-1] | 268
[2H]C([2H])(Oc1cc2n(c(=O)c1Cl)-c1c(cnc(-n3cc(F)c(C(C)(C)NC(C)=O)n3)c1F)CCCC2)c1ncc(F)cc1F [Example 6-1] | 153
